- Study System: glucocerebrosidase (Homo sapiens)
- Sequence (P04062 40-536): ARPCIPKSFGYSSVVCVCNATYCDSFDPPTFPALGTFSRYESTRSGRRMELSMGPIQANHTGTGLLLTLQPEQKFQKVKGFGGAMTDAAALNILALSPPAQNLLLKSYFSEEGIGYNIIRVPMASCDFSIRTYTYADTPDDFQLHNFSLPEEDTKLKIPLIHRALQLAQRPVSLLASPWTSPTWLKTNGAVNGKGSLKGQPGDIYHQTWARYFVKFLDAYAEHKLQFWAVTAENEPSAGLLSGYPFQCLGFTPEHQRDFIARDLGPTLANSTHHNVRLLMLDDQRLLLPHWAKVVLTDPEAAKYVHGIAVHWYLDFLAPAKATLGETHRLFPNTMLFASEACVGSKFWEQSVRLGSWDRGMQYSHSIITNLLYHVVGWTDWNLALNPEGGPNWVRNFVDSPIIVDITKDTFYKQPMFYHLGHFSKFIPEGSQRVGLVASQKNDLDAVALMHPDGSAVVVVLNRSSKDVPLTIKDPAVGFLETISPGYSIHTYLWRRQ
- Measurement Description: glucocerebrosidase activity in intact melanoma cells (4MU-b-glucoside, conduritol B-epoxide sensitive)
- Assay type: cell-based
- Set-up: the hydrolysis of 4MU-b-glucoside by cultured melanoma cells; endogenous in cells
Measurement Label: pIC50
For clarity, pIC50 is expressed as the negative log10 of concentration in mol/L.

query: I have this compound here, CC(C)CCC[C@@H](C)[C@H]1CC[C@H]2[C@@H]3CC=C4C[C@@H](OCCCCCN5C[C@H](O)[C@@H](O)[C@H](O)[C@H]5CO)CC[C@]4(C)[C@H]3CC[C@]12C [P24] , and I need its recorded pIC50.
result: 6.10

###

Known pKi of a selection of compounds
- Study System: glucocerebrosidase (Ceredase) (Homo sapiens, UniProt P04062)
- Sequence (P04062 40-536): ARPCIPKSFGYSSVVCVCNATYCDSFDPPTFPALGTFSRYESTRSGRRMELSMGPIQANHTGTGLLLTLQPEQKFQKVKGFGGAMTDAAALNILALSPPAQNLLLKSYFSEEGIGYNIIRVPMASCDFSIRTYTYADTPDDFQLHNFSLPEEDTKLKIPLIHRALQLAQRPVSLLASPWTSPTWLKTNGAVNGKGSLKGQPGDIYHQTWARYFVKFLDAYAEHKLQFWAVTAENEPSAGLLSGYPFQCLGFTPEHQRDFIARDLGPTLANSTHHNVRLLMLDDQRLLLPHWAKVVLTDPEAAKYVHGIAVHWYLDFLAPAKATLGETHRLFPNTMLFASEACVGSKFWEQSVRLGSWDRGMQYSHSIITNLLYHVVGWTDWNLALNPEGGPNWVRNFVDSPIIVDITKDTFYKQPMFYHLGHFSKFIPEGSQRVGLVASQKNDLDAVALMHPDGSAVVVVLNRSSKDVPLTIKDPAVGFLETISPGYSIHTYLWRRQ
For clarity, pKi is expressed as the negative log10 of concentration in mol/L.

Worked examples, 5 compounds total:
CCCCC(=O)N1C[C@H](O)[C@@H](O)[C@H](O)[C@H]1CO [PENTANOYLDNJ, N-pentanoyl DNJ, reference compound] ... 3.17
CCCCCN1C[C@H](O)[C@@H](O)[C@H](O)[C@H]1CO [PENTYLDNJ, N-pentyl DNJ, reference compound] ... 3.60
CC(C)CCC[C@@H](C)[C@H]1CC[C@H]2[C@@H]3CC=C4C[C@@H](OCCCCCN5C[C@H](O)[C@@H](O)[C@H](O)[C@H]5CO)CC[C@]4(C)[C@H]3CC[C@]12C ... 6.02
CC(C)CCC[C@@H](C)[C@H]1CC[C@H]2[C@@H]3CC=C4C[C@@H](OC(=O)CCCC(=O)N5C[C@H](O)[C@@H](O)[C@H](O)[C@H]5CO)CC[C@]4(C)[C@H]3CC[C@]12C ... 4.29
O=C(CCCC(=O)N1C[C@H](O)[C@@H](O)[C@H](O)[C@H]1CO)Oc1cc2ccccc2c2ccccc12 ... 4.94

query: I have this compound here, CCCN1C[C@H](O)[C@@H](O)[C@H](O)[C@H]1CO [PROPYLDNJ, N-propyl DNJ, reference compound] , and I need its recorded pKi.
result: 3.26

query: I have this compound here, CC(C)CCC[C@@H](C)[C@H]1CC[C@H]2[C@@H]3CC[C@H]4C[C@@H](OC(=O)CCCC(=O)N5C[C@H](O)[C@@H](O)[C@H](O)[C@H]5CO)CC[C@]4(C)[C@H]3CC[C@]12C , and I need its recorded pKi.
result: 4.95

###

- Study System: glucosylceramidase (Homo sapiens)
- Measurement Description: glucosylceramidase activity towards 4MU-b-glucoside in conduritol B-epoxide pre-treated membrane suspension from human spleen
Known Ki of a selection of compounds
The response must be a number in nM with no trailing unit.

CCCN1C[C@H](O)[C@@H](O)[C@H](O)[C@H]1CO [PROPYLDNJ, N-propyl DNJ, reference compound] ... 123
CCCCC(=O)N1C[C@H](O)[C@@H](O)[C@H](O)[C@H]1CO [PENTANOYLDNJ, N-pentanoyl DNJ, reference compound] ... 84000
CC(C)CCC[C@@H](C)[C@H]1CC[C@H]2[C@@H]3CC=C4C[C@@H](OCCCCCN5C[C@H](O)[C@@H](O)[C@H](O)[C@H]5CO)CC[C@]4(C)[C@H]3CC[C@]12C ... 97

query: I have this compound here, CCCCCN1C[C@H](O)[C@@H](O)[C@H](O)[C@H]1CO [PENTYLDNJ, N-pentyl DNJ, reference compound] , and I need its recorded Ki.
result: 38

###

Known pKi of a selection of molecules
- Study System: UniProt:P10253
- Measurement Description: purified lysosomal a-glucosidase activity towards 4MU-a-glucoside
- Assay type: biochemical
- Test Context: 4MU-a-glucoside, pH 4.0; read-out: apparent Ki A-GLUCOSIDASE
pKi: −log10 of the molar value.

query: I have this molecule here, O=C(CCCC(=O)N1C[C@H](O)[C@@H](O)[C@H](O)[C@H]1CO)OCC12CC3CC(CC(C3)C1)C2 , and I need its recorded pKi.
result: < 4.00

###

- Study System: lysosomal a-glucosidase (Homo sapiens, UniProt P10253)
- Measurement Description: purified lysosomal a-glucosidase activity towards 4MU-a-glucoside
- Assay type: biochemical
- Test Context: read-out: apparent Ki A-GLUCOSIDASE; 4MU-a-glucoside, pH 4.0
Measurement Label: Ki

query: I have this compound here, O=C(CCCC(=O)N1C[C@H](O)[C@@H](O)[C@H](O)[C@H]1CO)Oc1cc2ccccc2c2ccccc12 [P16] , and I need its recorded Ki.
result: > 100 µM

###

- Study System: glucosylceramidase (Homo sapiens)
- Sequence (Q9HCG7 1-927): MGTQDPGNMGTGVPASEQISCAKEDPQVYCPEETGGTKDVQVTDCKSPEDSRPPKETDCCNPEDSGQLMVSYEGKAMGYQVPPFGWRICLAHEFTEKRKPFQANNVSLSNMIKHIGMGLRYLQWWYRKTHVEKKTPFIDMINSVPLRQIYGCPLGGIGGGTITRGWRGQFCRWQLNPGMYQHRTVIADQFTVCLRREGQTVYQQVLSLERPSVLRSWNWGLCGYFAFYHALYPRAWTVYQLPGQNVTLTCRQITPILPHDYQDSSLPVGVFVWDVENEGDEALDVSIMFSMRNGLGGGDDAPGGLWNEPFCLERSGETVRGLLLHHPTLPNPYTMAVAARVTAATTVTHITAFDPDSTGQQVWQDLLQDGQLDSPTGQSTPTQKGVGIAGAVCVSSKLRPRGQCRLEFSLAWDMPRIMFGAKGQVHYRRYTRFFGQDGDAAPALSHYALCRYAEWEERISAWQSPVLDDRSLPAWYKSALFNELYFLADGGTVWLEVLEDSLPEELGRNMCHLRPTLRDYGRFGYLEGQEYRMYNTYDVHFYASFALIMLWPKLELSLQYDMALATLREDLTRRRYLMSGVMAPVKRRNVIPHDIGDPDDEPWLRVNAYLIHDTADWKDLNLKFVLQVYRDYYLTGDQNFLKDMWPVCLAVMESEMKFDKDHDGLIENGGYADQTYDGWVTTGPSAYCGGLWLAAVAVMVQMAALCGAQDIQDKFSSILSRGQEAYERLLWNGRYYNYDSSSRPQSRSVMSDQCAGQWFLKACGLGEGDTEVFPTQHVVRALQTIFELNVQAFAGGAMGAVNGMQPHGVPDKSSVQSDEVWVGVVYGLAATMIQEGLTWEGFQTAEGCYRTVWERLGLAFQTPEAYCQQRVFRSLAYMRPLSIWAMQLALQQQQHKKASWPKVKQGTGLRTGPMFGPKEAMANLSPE
- Measurement Description: glucosylceramidase activity in intact melanoma cells (4MU-b-glucoside, conduritol B-epoxide insensitive)
- Type: cell-based
- Design: endogenous in cells
- Test Context: read-out: IC50 GLUCOSYLCERAMIDASE
Measurement Label: IC50 (µM)
The response must be a number in µM with no trailing unit.

query: I have this compound here, CCCCC(=O)N1C[C@H](O)[C@@H](O)[C@H](O)[C@H]1CO [PENTANOYLDNJ, N-pentanoyl DNJ, reference compound] , and I need its recorded IC50.
result: 30

query: I have this compound here, O=C(CCCC(=O)N1C[C@H](O)[C@@H](O)[C@H](O)[C@H]1CO)OCC12CC3CC(CC(C3)C1)C2 , and I need its recorded IC50.
result: 200

query: I have this compound here, O=C(CCCC(=O)N1C[C@H](O)[C@@H](O)[C@H](O)[C@H]1CO)OC12CC3CC(CC(C3)C1)C2 , and I need its recorded IC50.
result: 200

Data provenance: patent US6177447A
